molecular target: T1, HLA-A24.02 (human); assay: competition with radiolabeled reference peptide, purified MHC I
T1 construct: Purified class I MHC
Would you mind telling me the reported IC50 of each entry?
One number for each entry, in µM.

What IC50 value was documented for this binder, KLRSPLWIF (also called SMAP1(-1)) ?
0.828

Now consider a different binder.
What does the record list as IC50 for MNWRPILTII (also called TP53, R248W) ?
44.9

Reference for the values: patent US20220282217A1
